assay: A549 cell viability effects, profiling panel, calcein-AM fluorescence, 48 h, basal (AID 1162); conditions: higher = more signal; also: test concentration not given here
experimental readout: z-score
Field format: numeric only.

compound	recorded result
CC(=O)NCCCC[C@@H]1NC(=O)[C@H]2C[C@@H](C(=O)NCCCCCCN(C)C)[C@@H](c3ccc(O)cc3)N2C1=O	-0.345
COCCOC(=O)N1C(=O)[C@@]2(c3cc(C#CC4=CCCCC4)ccc31)[C@H](C(=O)NC[C@H](O)c1ccccc1)[C@H]1C(=O)O[C@H](c3ccccc3)[C@H](c3ccccc3)N1[C@@H]2c1ccccc1OCCO	-1.03
COc1ccc([Si](C)(C)[C@H]2[C@H](CCO)O[C@@]3(C(=O)N(Cc4ccccc4)c4ccc(N5C(=O)c6cccc7cccc5c67)cc43)[C@@H]2C)cc1	0.318
O=C(CS)NCCCCCNC(=O)[C@H]1C[C@H]2C(=O)N[C@@H](Cc3ccccc3)C(=O)N2[C@H]1c1ccc(O)cc1	-0.142
C=C(CCCC)C(=O)CC[C@@H](OC(=O)c1cccnc1)c1cccc(OCCO)c1	1.17

Qu. Need z-score, item COCCOC(=O)N1C(=O)[C@@]2(c3cc(C#CCNC(N)=O)ccc31)[C@H](C(=O)N1CCCCCCC1)[C@H]1C(=O)O[C@H](c3ccccc3)[C@H](c3ccccc3)N1[C@@H]2c1ccccc1OCCO
Ans. 1.01

Qu. How about this compound: C=CC[C@]1(C(=O)O)N=C(c2ccc(OCCCO)cc2)O[C@H]1c1ccccc1N=[N+]=[N-]
Ans. 0.144

Qu. How about this compound: CO[C@H]1COC(=O)[C@@H](Cc2ccccc2)NC(=O)[C@@H](C)COC(=O)CC=C[C@@H]1C
Ans. 0.899

----------
biological target: NADPH oxidase 4 (Homo sapiens); assay: NOX4-dependent H2O2 signal modulators, primary screen, NOX inhibitor project, cell-based, HEK293-NOX4, tetracycline-induced, Amplex Red fluorescence (AID 1160); details: 45 min, higher = more signal, called active from +8 up or from −8 down
experimental readout: z-score
Field format: numeric only.

Example cases with answers are listed next.
substance smiles	experimental readout	recorded result
CN(C)C(=O)[C@@]1(Cc2ccccc2N=[N+]=[N-])N=C(c2ccc(OCCCO)cc2)O[C@H]1c1ccccc1CN=[N+]=[N-]	z-score	1.06
C=CCc1cccc([C@H]2N[C@H](C(=O)O)CC[C@@H]2C)c1	z-score	0.773
COCCOC(=O)N1C(=O)[C@@]2(c3cc(C#CCNC(N)=O)ccc31)[C@H](C(=O)N1CCCCCCC1)[C@H]1C(=O)O[C@H](c3ccccc3)[C@H](c3ccccc3)N1[C@@H]2c1ccccc1OCCO	z-score	0.683
C=C(CCCC)C(=O)CC[C@@H](OC(C)=O)c1ccccc1OCCO	z-score	-0.852
Cc1ccc(S[C@]2(C(=O)O)CC(=O)N(Cc3ccccc3)[C@@H]2c2ccc(CO)cc2)cc1	z-score	-0.197
COC(=O)[C@@]1(Cc2ccc(OC)cc2)[C@H]2c3cc(C(=O)N(C)C)n(Cc4ccc(C)c(F)c4F)c3C[C@H]2CN1C(=O)c1ccccc1	z-score	-0.522

Qu. Need z-score, item CO[C@@H]1COC(=O)CC=C[C@H](C)COC(=O)[C@H](Cc2ccccc2)NC(=O)CC=C[C@H]1C
Ans. 0.845

Qu. How about this compound: C=C(/C(=C/C[C@@H](OC(=O)c1ccncc1)c1ccc(CO)o1)c1cnc2ccccc2c1)C(C)C
Ans. -0.649

----------
assay: small-molecule microarray binders of probe aWnt5a, primary screen, biochemical, biotinylated probe, 635/667 nm fluorescence (AID 1113); details: higher = more signal;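 also: score merges 667 nm fluorescence intensity with signal-to-noise per printed feature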
Use -0.07 as the dividing line for composite z-score, with the line itself on the True side and lower values as False.

Example cases with answers are listed next.
substance smiles	class label
NC(=O)NCC#Cc1ccc2c(c1)[C@]1(C(=O)N2)[C@H](C(N)=O)[C@H]2C(=O)O[C@H](c3ccccc3)[C@H](c3ccccc3)N2[C@@H]1c1ccccc1OCCO	False
COC(=O)C[C@H]1O[C@]2(C(=O)N(Cc3ccccc3)c3ccc(I)cc32)[C@@H](C)[C@@H]1[Si](C)(C)c1ccc(OC)cc1	True
CO[C@H]1COC(=O)CC=C[C@H](C)COC(=O)[C@@H](OCc2ccccc2)C=C[C@@H]1C	False
C[C@@H]1NC(=O)CC=C[C@@H](C)[C@@H]2C=C[C@H](O)[C@@H](COC(=O)[C@H](C)NC(=O)CC=C[C@@H](C)[C@@H]3C=C[C@H](O)[C@@H](COC1=O)O3)O2	False

Please examine the following record next.
Qu. API: above_or_equal(metric=composite z-score, cutoff=-0.07) for item COCCOC(=O)N1C(=O)[C@@]2(c3cc(C#CCCO)ccc31)[C@H](c1ccc(O)cc1)N1[C@H](c3ccccc3)[C@H](c3ccccc3)OC(=O)[C@H]1[C@@H]2C(=O)Nc1nc2ccccc2s1
Ans. True

----------
biological target: Neurogenic locus notch homolog protein 2 (Homo sapiens); experiment: Notch2 binders on small-molecule microarrays, primary screen, biochemical, small-molecule microarray, 635 nm fluorescence, stem cell growth factors (AID 1073); conditions: Notch2 binding, higher = more signal
In this section, each of the molecules is paired with its reported composite z-score.
Field format: numeric only.

molecule	study target	experimental readout	recorded result
O=C1c2ccccc2[C@@]2(Cc3ccccc3N(CC(F)(F)F)C2=O)[C@H](c2ccc(CO)cc2)N1C1CCCCC1	Neurogenic locus notch homolog protein 2 (Homo sapiens)	composite z-score	0.455
CC(C)=C1C(=O)C(c2ccccc2)=C2CN3C(=O)N(CCc4ccccc4)C(=O)[C@]3(Cc3ccccc3)[C@H]21	Neurogenic locus notch homolog protein 2 (Homo sapiens)	composite z-score	-0.272
CC(=O)NCCCC[C@@H]1NC(=O)[C@@H]2C[C@H](C(=O)NCc3ccc(F)cc3)[C@H](c3cccc(OCCO)c3)N2C1=O	Neurogenic locus notch homolog protein 2 (Homo sapiens)	composite z-score	-0.417
C=CCOC(=O)[C@@H]1[C@H]2C(=O)O[C@H](c3ccccc3)[C@H](c3ccccc3)N2[C@H](c2ccc(OCCOC(=O)[C@H]3C[C@H]4C(=O)N[C@@H](CCCCNC(C)=O)C(=O)N4[C@H]3c3ccc(O)cc3)cc2)[C@@]12C(=O)Nc1ccc(I)cc12	Neurogenic locus notch homolog protein 2 (Homo sapiens)	composite z-score	0.5
O=C1c2ccccc2[C@](Cc2ccccc2I)(C(=O)O)[C@H](c2ccc(CO)cc2)N1C1CCCCC1	Neurogenic locus notch homolog protein 2 (Homo sapiens)	composite z-score	1.56
CO[C@H]1COC(=O)[C@@H](OCc2ccccc2)C=C[C@H](C)[C@@H](OC)COC(=O)[C@H](OCc2ccccc2)C=C[C@@H]1C	Neurogenic locus notch homolog protein 2 (Homo sapiens)	composite z-score	-0.893

Qu. Need composite z-score, item CN(C)c1ccc(C(O)C2C=CC3C(=O)NC(=O)C3N2Nc2ccc(Cl)cc2Cl)cc1 (stereo unspecified)
Ans. 0.879

Qu. How about this molecule: C=C(COC)/C(=C/C[C@@H](OC(C)=O)c1cccc(OCCO)c1)c1cc(C(=O)OC)ccc1OC
Ans. -0.0821

Qu. How about this molecule: C=C(C(=O)CC[C@H](OC(=O)c1ccccc1-c1ccccc1C(=O)O)c1ccc(CO)o1)C(C)C
Ans. -0.0673

Qu. How about this molecule: C=C[C@H](OC)[C@@H](OC(=O)Nc1ccc(SC)cc1)c1ccc(O)c(F)c1
Ans. 0.474

Qu. How about this molecule: CCCC[C@@H]1C[C@H]1[C@@H](NC(=O)c1cccs1)c1ccc(Cl)cc1
Ans. -1.45

Qu. How about this molecule: N#Cc1ccc(NN2C(C(O)c3ccc(I)cc3)C=CC3C(=O)N(c4ccccc4)C(=O)C32)cc1 (stereo unspecified)
Ans. 1.32

----------
assay: small-molecule microarray binders of probe aCHRDL2, primary screen, biochemical, biotinylated probe, 635/667 nm fluorescence (AID 1100); conditions: higher = more signal
experimental readout: composite z-score
Field format: numeric only.

Example cases with answers are listed next.
compound	recorded result
C=C(COC)/C(=C/C[C@H](OC(C)=O)c1ccc(OCCO)cc1)c1cnc2ccccc2c1	-0.146
CCc1cccc(NC(=O)O[C@H]2[C@H](OC(=O)Nc3ccccc3)[C@@H](OC(=O)Nc3ccccc3)[C@@H](OC)O[C@@H]2CO)c1	0.37

Qu. Need composite z-score, item C=CCC(OC(C)=O)[C@@H]1[C@@H](N(Cc2cccc3ccccc23)C(=O)Cc2ccc(F)cc2)c2cc(OCCCO)ccc2N1C(=O)Cc1ccc2ccccc2c1 (stereo not given in full)
Ans. 0.315

Qu. How about this compound: NC(=O)[C@H]1[C@@H]2C(=O)O[C@@H](c3ccccc3)[C@@H](c3ccccc3)N2[C@@H](c2ccc(O)cc2)[C@]12C(=O)Nc1ccc(C#CCCO)cc12
Ans. 0.604

Qu. How about this compound: COc1ccc(C(=O)Nc2ccc(CN3C(=O)[C@]4(O[C@H](CCn5cc(CCO)nn5)[C@@H]([Si](C)(C)c5ccc(OC)cc5)[C@@H]4C)c4ccccc43)cc2)cc1
Ans. 0.589

Qu. How about this compound: C=CC[C@]1(C(N)=O)N=C(c2ccc(OCCCO)cc2)O[C@H]1c1ccccc1CN=[N+]=[N-]
Ans. 1.24

Qu. How about this compound: COC(=O)[C@@]1(Cc2ccc(OC)cc2)[C@H]2c3cc(C(=O)N(C)C)n(Cc4ccc(C)c(F)c4F)c3C[C@H]2CN1C(=O)c1ccccc1
Ans. 0.993

Qu. How about this compound: C=CC[C@]1(C(=O)NCC(O)CO)N=C(c2ccc(OCCCO)cc2)O[C@H]1c1ccccc1 (stereo not given in full)
Ans. 1.3

Qu. How about this compound: COc1ccc(NN2C(C(O)c3cc(OC)c(OC)c(OC)c3)C=CC3C(=O)N(C4CCCCC4)C(=O)C32)cc1 (stereo not given)
Ans. 1.31

Qu. How about this compound: CCOC(=O)C1=CCC(c2cccc3ccccc23)N(S(=O)(=O)c2ccc(C)cc2)C1 (stereo not given)
Ans. 0.596

Qu. How about this compound: CC(C)[Si]1(C(C)C)O[C@@H](c2ccccc2)c2cc(C3CC3)nc(-c3ccc(Oc4ccccc4)cc3)c21
Ans. -0.037

Qu. How about this compound: Cc1ccc(S(=O)(=O)c2cc3oc2CC[C@@H](CO)NC(=O)N(C)Cc2cn(nn2)C[C@H](Cc2ccccc2)NC3=O)cc1
Ans. -0.0291

Qu. How about this compound: C=C(/C(=C/C[C@@H](OC(=O)c1ccncc1)c1ccc(CO)o1)c1cnc2ccccc2c1)C(C)C
Ans. -0.157

Qu. How about this compound: CC(C)[Si]1(C(C)C)OCc2cc(C3CC3)nc(-c3ccccc3)c21
Ans. 0.525

Qu. How about this compound: Cc1ccc([C@@H]2CC=C(C(=O)O)[C@H](c3ccccc3)N2S(=O)(=O)c2ccc(C)cc2)cc1
Ans. 1.23
